B1: CPEB3 Ribozyme (parent)
chain: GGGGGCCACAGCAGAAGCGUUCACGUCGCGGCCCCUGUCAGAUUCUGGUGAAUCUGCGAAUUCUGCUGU

Variants of: B1
Experiment: self-cleavage, relative activity (ratio to wild type); higher = more cleavage; co-transcriptional
Tick condition met if self-cleavage is 0.8 or greater. Tick condition not met if self-cleavage is less than 0.8.

Example entries begin here.
GGGGGCCACAGCAGAAGCGUUCACGUCGCGGCCCCUGUCAGAUUCUAGUGAAUCUGCGAAUUAUGCUGU [G47A C63A]	condition met
GGGGGCCACAGCAGAAGCGUUCACGUCGCGGCCCCUGUCAGAUACUGGUGAAUCUGCGAAUUCUGCGGU [U44A U67G]	condition met
GGGGGCCACAGCAGAAGCGUUCACGUCGCGGCCCCUGUCAGAUUCGGGUGAAUCUGUGAAUUCUGCUGU [U46G C57U]	condition not met

Does the reported self-cleavage for GGGGGCCACAGCAGAAGCGUUCACGUCGCGGCCCCUACCAGAUUCUGGUGAAUCUGCGAAUUCUGCUGU [G37A U38C] fall at or above the 0.8 mark?
condition not met
